This collection of values is drawn from patent US20160257732A1.

Target: HA of A/New Jersey/8/76 (H1N1) (influenza A virus)
Assay: cell-based or functional assay
MEASURE_NAME: Neutralization IC50, H1-NJ76
A complete answer gives the number and then names the unit.

Reported Neutralization IC50, H1-NJ76 ( Antibody 6 (antibody, V domains shown) VH: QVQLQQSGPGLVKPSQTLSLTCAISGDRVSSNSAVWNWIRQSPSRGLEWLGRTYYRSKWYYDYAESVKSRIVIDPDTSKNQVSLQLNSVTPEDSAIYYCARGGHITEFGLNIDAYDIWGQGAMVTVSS VL: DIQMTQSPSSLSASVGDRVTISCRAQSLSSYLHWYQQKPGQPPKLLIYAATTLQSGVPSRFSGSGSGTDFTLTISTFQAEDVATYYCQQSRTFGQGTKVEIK ) = 2.6 µg/mL
